The origin of these recorded values is the nanobody polyreactivity screen of Harvey et al. (2022).

# test details: yeast display, Sf9 membrane polyspecificity reagent, FACS + sequencing; frameworks hold sequencing errors
readout name: polyreactivity (PSR sort gate)

>>> result("QFQLVESGGGLVQAGGSLRLSCAASGRTFYAYAMGWYRQAHGKARELVAAIRGRTYYADSVKGRFTISSDNAKNTVYLQMNSLKPEDTAVYYCAARWVPREKLMFYWGQGTQVTVSW")
"high polyreactivity"
>>> result("QVQLVESGGGLVQEGGSLRIICAASGFIFYYYAMGWYRQAPGKERELVAGISRRGGSTYYADSVKGRFTISRDNAKNTVYLQMNSLKPEDTAVYYCAALGDDATSYGYWGQGTQVTVSS")
"high polyreactivity"
>>> result("QVHLVESGGALVQAGGSLRLSCAASVIVFKRYAMGWYRQAPGKEREFVATISYTGGRTYYADSVKGRFTISRDNAKNTVYFQMNSLKPEDTAGYYCATLYRSSKHQPLDYWGQGTQVTVSS")
"high polyreactivity"

* * *

# test details: yeast display, Sf9 membrane polyspecificity reagent, FACS + sequencing; frameworks hold sequencing errors
readout name: polyreactivity (PSR sort gate)

Consider the reported polyreactivity (PSR sort gate) for these sequences:
>>> result("QVQLVESGGGLVQAGGSLRLSCAASGRTFGVYAMGWNRQPPGKERELVATITSVDRTTYADSVKGRFTFSRDNAKITVYLQMNSLKPEDTAVYYCAAVGRWPRYYYWGQGTQVTVSS")
"high polyreactivity"
>>> result("QVQLLESGGGLVQSGGSLRLTCAASGFTFRGYAMGWYRQAPGKERELVAAISWNGGRTYADSVKGRFTITRDNAKYTVYLQMNSLKPEDTAVYYCNAVKFGATAYDYWGQGTQVTVSS")
"high polyreactivity"
>>> result("QVQLVESGGGLVQAGGSLRLSCAASGRTFYANAMGWSRQAPGRERELVAAISTGGDGTYYADSVKGRFTISRDYAKITVYLQMNSLKPEDTAVYDCAVRHRASGILYYYWGQGTQVTVSS")
"low polyreactivity"
>>> result("QVQLVESGGGLVQAGGSHRLSCAASGRTFRYYTMGWYRQAPGKEREFVAAISSTGGTYYADSVKGRFTISRDNAKNTVYLQMNSLKPEDTAVYYCAKVYFWGALSPDKYDEDYWGQGTQVTVSS")
"low polyreactivity"
>>> result("QVQLVESGGGLVQAGGSLRLSCAASGRIFYDYAMGWYRQAPGKERELVAAISGSGGSTYYADSVKGRFTISRDNAKNTVYLQMNSLKPEDTAVYYCNRYTTRYYPGGDYWGQGTQVTVSS")
"high polyreactivity"
>>> result("QVQLQGSGGGLVQAGGSLRLSCAASGNIFDADIKGWYRQAPGKEIELVASITDGGSTNYADSVKGRFTISRDNAKNTVYLQMYSLKHEDTAVYYCAAIAYPDIPTYFDYDSDCFYWSQGTQVTVSS")
"high polyreactivity"

Reported polyreactivity (PSR sort gate) for QVQLVESGGGLVQAGGSLRLSCAASGSIFWWNAMGWYRQAPGKERELVAGITKIGSSTYYADSVKGRFTISRDNAKNTVYLQMNSLKPEDTAVYYCNAYGPNIYSSRYDYWGQGTQVTVSS was low polyreactivity

Reported polyreactivity (PSR sort gate) for QDQLVESGGGLVPAVGSLRLTCAASGYTFWDYTMGLYRQAPGKERELGAAMSSSGSSTYYADSVKGRFTISRDNAKNTVYLQMNSLKPEDNAVYYCAAYSRRQWKYDYWGQGTHVTVSS was high polyreactivity

Reported polyreactivity (PSR sort gate) for QVQLVESGGGLVQAGGSLRLSCAASGSTFIHNAMGWYRQAPGKERELVAAITSGGSTYYADSVKGRFTISRDNAKNTVYLQMTSLKPEDTAVYYCNAGRGTRFVYIDGMDYWGQGTQVTVSS was high polyreactivity

Reported polyreactivity (PSR sort gate) for QVQLVESGGGLVQAGGSLRLSCAASGRILTPYTMGWYRQAPGKERELVAAISKRGTSTHYADSVKGRFTISRDNAKNTVYLLMNSLKPEDTAVYYCNAVYRSSQYDYWGQGTQVTVSS was high polyreactivity

Reported polyreactivity (PSR sort gate) for QVQLVESGGGLVQAGGSLRLSCAASGSTFVYNTMGWYRQAPGKERELVASISSDGNTYYADSVKGRFTISRDNAKNTVYLQMNSLKPEDTAVYYCAARYYYDWRFVGYDYWGQGTQVTVSS was low polyreactivity

Reported polyreactivity (PSR sort gate) for QVQLVESWGGLVQAGGSLRLSCAASGSTFDYNAMGWYRQAPGKERELVAAITSTGGNTYYADSVKGRFTISRDNAKNTVYLQMISMKPEDTAVYYCNKDVARYPYGKFDYWGQGTQVTVSS was low polyreactivity

Reported polyreactivity (PSR sort gate) for QVQLVESGGGLVQAGGSLRLSCAASGSTFVYYAMGWYRQAPGKETEFVAAISISSGSTYYADSVKGRFTISRDNAKNTVYLQMNSLKPEDTAVYYCAVDWFLGGYDDLDYWGQGTQVTVSS was low polyreactivity

Reported polyreactivity (PSR sort gate) for QVQLLESGGGLVQAGGSLRLSCAASGRTFRVYARGWYRQAPGKEREFVATISVRGGSTYYAYSVKGRFTISRDNAKITVYLQMNSLKPVDTAVYYCARSSRGNLDYWGQGTQVSVSS was low polyreactivity

Reported polyreactivity (PSR sort gate) for QVQLEESGGGLVQAGGSLRLSCAASGFTLPLYAMGWYIQAPGKERELVAAISSGGGRTYYADSVKGRFTISPDYEKNSVYLQMNSLKPEDTAVYYCNVDRWWLGRYKFYYWGQGTQVTVSS was high polyreactivity

Reported polyreactivity (PSR sort gate) for QVQLVESGGGLLQAGGSLRLSCAASGSTFSRYTMGWYRQAPGKERELVAAISYRGGSTYYADSVKGRFTISRDNAKNTVYLQMNSLKPEDTAVYYCAAEFRVEGSDYDYWGQGTQVTVSS was low polyreactivity

Reported polyreactivity (PSR sort gate) for QVQLQESGGGLVQAGGSLRLSCAASGTIFTARFMGWYRQAPGKERELVATITDGGNTNHADSVKGRFTISRDNAKNTVYLQMNSLKPEDAAVYFCAAGEVDNDTLLYWGQGSQVTVSS was low polyreactivity

Reported polyreactivity (PSR sort gate) for QVQLVESGGGLVQAGGSLRLSCAASGRTFISYAMGWYRQAPGKERELVAGISRGGSTYYADSVKGRFTISRDNAKNTVYLQMNSLKPEDTAVYYCAARRWISSHSYKYGYWGQGTQVTVSS was high polyreactivity

Reported polyreactivity (PSR sort gate) for QVQLVESGGGLVQAGGSLRLSCAASGNTQGYNAAMGWYRQAPGKERELVAAINSGGGSTYYADSVKGRFTISRDNAKNTVYLQMNSLKPEDTAVYYCAARYRSRYDYYYDRDYWGQGTQVTVSS was low polyreactivity

Reported polyreactivity (PSR sort gate) for QVQLVESGGGLVQAGGSLRLSCAASGSIITRNAMGWYRQAPGKERELVATIRYRGGSTYYADSVKGRFTISRDNAKNTVFLQMNSLKPEDTAVYYCAARRSHPPDPRFRYGYWGQGTQVTVSS was high polyreactivity

Reported polyreactivity (PSR sort gate) for QVQLVESGGGLVQAGGSLRLSCAASGFTFVFYAMGWYRQAPGKERELVAAISSRGGSTYYADSVKGRFTISRDNAKNTVDLQMNSLKPEDTAVYYCNVVSTYWTTYEEYYWGQGTQVTVSS was high polyreactivity
